assay: Nitrite content (ion chromatography; LC-FLD with DAN derivatisation; Griess test) in drug substance, intermediates, reagents, solvents, filters, excipients; type: physicochemical; details: LEE011-B10, laboratory scale 30 g experiments
Readings of Nitrite, value in brackets below LOQ for the listed compounds
Write the number in ppm without appending the unit.

{"compound": "CN(C)C(=O)c1cc2cnc(Nc3ccc(N4CCNCC4)cn3)nc2n1C1CCCC1 [Batch 805193A096]", "unit.name": "ppm", "Nitrite, value in brackets below LOQ": 0.05}
{"compound": "CN(C)C(=O)c1cc2cnc(Nc3ccc(N4CCNCC4)cn3)nc2n1C1CCCC1 [Batch 805193A095]", "unit.name": "ppm", "Nitrite, value in brackets below LOQ": 0.08}
{"compound": "CN(C)C(=O)c1cc2cnc(Nc3ccc(N4CCNCC4)cn3)nc2n1C1CCCC1 [Batch 805193A098]", "unit.name": "ppm", "Nitrite, value in brackets below LOQ": 0.07}

*Q* Requested read-out: Nitrite, value in brackets below LOQ. Entry: CN(C)C(=O)c1cc2cnc(Nc3ccc(N4CCNCC4)cn3)nc2n1C1CCCC1 [Batch 805193A097]
*A* 0.07

* * *

assay: DMP433 (N-nitroso-ribociclib) content in ribociclib base (B10) and ribociclib succinate (B12, drug substance) batches and process experiments, LC-MS/MS or HPLC-HRMS; format: physicochemical; conditions: ribociclib base (LEE011 B10)
reported.property: DMP433 [ppm], result in brackets (extrapolation, estimate of actual value below LOQ) (ppm)
Write the number in ppm without appending the unit.

Observe how each entry below is paired with its result.
{"molecule": "CN(C)C(=O)c1cc2cnc(Nc3ccc(N4CCNCC4)cn3)nc2n1C1CCCC1 [Batch 805193A072]", "unit.name": "ppm", "reading": 0.060}
{"molecule": "CN(C)C(=O)c1cc2cnc(Nc3ccc(N4CCNCC4)cn3)nc2n1C1CCCC1 [Batch B0705467]", "unit.name": "ppm", "reading": 0.035}
{"molecule": "CN(C)C(=O)c1cc2cnc(Nc3ccc(N4CCNCC4)cn3)nc2n1C1CCCC1.O=C(O)CCC(=O)O", "unit.name": "ppm", "reading": 0.030}

*Q* Requested read-out: DMP433 [ppm], result in brackets (extrapolation, estimate of actual value below LOQ). Entry: CN(C)C(=O)c1cc2cnc(Nc3ccc(N4CCNCC4)cn3)nc2n1C1CCCC1 [Batch 923037A002]
*A* 0.047

* * *

assay: Nitrite content (ion chromatography; LC-FLD with DAN derivatisation; Griess test) in drug substance, intermediates, reagents, solvents, filters, excipients; type: physicochemical; settings: ribociclib succinate drug substance batches at release; manufacturer Raybow - DS04
reported.property: Nitrite NAT enhanced sample prep. (ppm)

Observe how each entry below is paired with its result.
{"molecule": "CN(C)C(=O)c1cc2cnc(Nc3ccc(N4CCNCC4)cn3)nc2n1C1CCCC1.O=C(O)CCC(=O)O [RIBOCICLIB SUCCINATE 833268R013]", "Nitrite NAT enhanced sample prep. (ppm)": "<0.1 ppm"}
{"molecule": "CN(C)C(=O)c1cc2cnc(Nc3ccc(N4CCNCC4)cn3)nc2n1C1CCCC1.O=C(O)CCC(=O)O [RIBOCICLIB SUCCINATE 833268R012]", "Nitrite NAT enhanced sample prep. (ppm)": "<0.1 ppm"}
{"molecule": "CN(C)C(=O)c1cc2cnc(Nc3ccc(N4CCNCC4)cn3)nc2n1C1CCCC1.O=C(O)CCC(=O)O [RIBOCICLIB SUCCINATE 833268A196]", "Nitrite NAT enhanced sample prep. (ppm)": "1.1 ppm"}

*Q* Requested read-out: Nitrite NAT enhanced sample prep. (ppm). Entry: CN(C)C(=O)c1cc2cnc(Nc3ccc(N4CCNCC4)cn3)nc2n1C1CCCC1.O=C(O)CCC(=O)O [RIBOCICLIB SUCCINATE 833268A198]
*A* 0.1 ppm

*Q* Requested read-out: Nitrite NAT enhanced sample prep. (ppm). Entry: CN(C)C(=O)c1cc2cnc(Nc3ccc(N4CCNCC4)cn3)nc2n1C1CCCC1.O=C(O)CCC(=O)O [RIBOCICLIB SUCCINATE 833268A207]
*A* 0.1 ppm

* * *

test: Nitrite content (ion chromatography; LC-FLD with DAN derivatisation; Griess test) in drug substance, intermediates, reagents, solvents, filters, excipients; type: physicochemical; settings: ribociclib succinate drug substance batches at release
reported.property: Nitrite NAT enhanced sample prep. (ppm)
Write the number in ppm without appending the unit.

*Q* Requested read-out: Nitrite NAT enhanced sample prep. (ppm). Entry: CN(C)C(=O)c1cc2cnc(Nc3ccc(N4CCNCC4)cn3)nc2n1C1CCCC1.O=C(O)CCC(=O)O [Batch B695106]
*A* 0.1

*Q* Requested read-out: Nitrite NAT enhanced sample prep. (ppm). Entry: CN(C)C(=O)c1cc2cnc(Nc3ccc(N4CCNCC4)cn3)nc2n1C1CCCC1.O=C(O)CCC(=O)O [Batch B698296]
*A* 0.3

*Q* Requested read-out: Nitrite NAT enhanced sample prep. (ppm). Entry: CN(C)C(=O)c1cc2cnc(Nc3ccc(N4CCNCC4)cn3)nc2n1C1CCCC1.O=C(O)CCC(=O)O [Batch B698297]
*A* 0.1

* * *

experiment: DMP433 (N-nitroso-ribociclib) content in ribociclib base (B10) and ribociclib succinate (B12, drug substance) batches and process experiments, LC-MS/MS or HPLC-HRMS; format: physicochemical; conditions: laboratory use test, salt formation B10 to B12 with filter parts added (filter per experiment); AS&T LJ LC-MS/MS
Label NOT MET if DMP433 [ppm] falls below 1 ppm; label MET in every other case.

{"compound": "CN(C)C(=O)c1cc2cnc(Nc3ccc(N4CCNCC4)cn3)nc2n1C1CCCC1", "label": "MET"}

*Q* Test whether the compound CN(C)C(=O)c1cc2cnc(Nc3ccc(N4CCNCC4)cn3)nc2n1C1CCCC1.O=C(O)CCC(=O)O [LEE011-cusakal1-036] records DMP433 [ppm] of 1 ppm or higher.
*A* MET

*Q* Test whether the compound CN(C)C(=O)c1cc2cnc(Nc3ccc(N4CCNCC4)cn3)nc2n1C1CCCC1.O=C(O)CCC(=O)O [LEE011-cusakal1-033] records DMP433 [ppm] of 1 ppm or higher.
*A* MET

*Q* Test whether the compound CN(C)C(=O)c1cc2cnc(Nc3ccc(N4CCNCC4)cn3)nc2n1C1CCCC1.O=C(O)CCC(=O)O [LEE011-cusakal1-035] records DMP433 [ppm] of 1 ppm or higher.
*A* MET

*Q* Test whether the compound CN(C)C(=O)c1cc2cnc(Nc3ccc(N4CCNCC4)cn3)nc2n1C1CCCC1.O=C(O)CCC(=O)O [LEE011-cusakal1-034] records DMP433 [ppm] of 1 ppm or higher.
*A* MET

*Q* Test whether the compound CN(C)C(=O)c1cc2cnc(Nc3ccc(N4CCNCC4)cn3)nc2n1C1CCCC1.O=C(O)CCC(=O)O [LEE011-cusakan1-050] records DMP433 [ppm] of 1 ppm or higher.
*A* NOT MET

* * *

Readings of Nitrite NAT enhanced sample prep. (ppm) for the listed molecules
experiment: Nitrite content (ion chromatography; LC-FLD with DAN derivatisation; Griess test) in drug substance, intermediates, reagents, solvents, filters, excipients; assay type: physicochemical; conditions: ribociclib succinate drug substance batches at release

Observe how each entry below is paired with its result.
{"molecule": "CN(C)C(=O)c1cc2cnc(Nc3ccc(N4CCNCC4)cn3)nc2n1C1CCCC1.O=C(O)CCC(=O)O [Batch B709049]", "Nitrite NAT enhanced sample prep. (ppm)": "<0.1 ppm"}
{"molecule": "CN(C)C(=O)c1cc2cnc(Nc3ccc(N4CCNCC4)cn3)nc2n1C1CCCC1.O=C(O)CCC(=O)O [Batch B699003]", "Nitrite NAT enhanced sample prep. (ppm)": "<0.1 ppm"}
{"molecule": "CN(C)C(=O)c1cc2cnc(Nc3ccc(N4CCNCC4)cn3)nc2n1C1CCCC1.O=C(O)CCC(=O)O [Batch B709939]", "Nitrite NAT enhanced sample prep. (ppm)": "<0.1 ppm"}

Note: attention shifts to another entry.
*Q* Requested read-out: Nitrite NAT enhanced sample prep. (ppm). Entry: CN(C)C(=O)c1cc2cnc(Nc3ccc(N4CCNCC4)cn3)nc2n1C1CCCC1.O=C(O)CCC(=O)O [Batch B708687]
*A* <0.1 ppm

* * *

experiment: Nitrite content (ion chromatography; LC-FLD with DAN derivatisation; Griess test) in drug substance, intermediates, reagents, solvents, filters, excipients; type: physicochemical; conditions: ribociclib succinate drug substance batches at release; manufacturer Raybow - DS04
reported.property: Nitrite NAT enhanced sample prep. (ppm)

Observe how each entry below is paired with its result.
{"molecule": "CN(C)C(=O)c1cc2cnc(Nc3ccc(N4CCNCC4)cn3)nc2n1C1CCCC1.O=C(O)CCC(=O)O [RIBOCICLIB SUCCINATE 833268R015]", "reading": "<0.1 ppm"}
{"molecule": "CN(C)C(=O)c1cc2cnc(Nc3ccc(N4CCNCC4)cn3)nc2n1C1CCCC1.O=C(O)CCC(=O)O [RIBOCICLIB SUCCINATE 833268R011]", "reading": "<0.1 ppm"}

Note: attention shifts to another entry.
*Q* Requested read-out: Nitrite NAT enhanced sample prep. (ppm). Entry: CN(C)C(=O)c1cc2cnc(Nc3ccc(N4CCNCC4)cn3)nc2n1C1CCCC1.O=C(O)CCC(=O)O [RIBOCICLIB SUCCINATE 833268R010]
*A* <0.1 ppm
